- test_system: UniProt P08253
- Sequence (P08253 110-660): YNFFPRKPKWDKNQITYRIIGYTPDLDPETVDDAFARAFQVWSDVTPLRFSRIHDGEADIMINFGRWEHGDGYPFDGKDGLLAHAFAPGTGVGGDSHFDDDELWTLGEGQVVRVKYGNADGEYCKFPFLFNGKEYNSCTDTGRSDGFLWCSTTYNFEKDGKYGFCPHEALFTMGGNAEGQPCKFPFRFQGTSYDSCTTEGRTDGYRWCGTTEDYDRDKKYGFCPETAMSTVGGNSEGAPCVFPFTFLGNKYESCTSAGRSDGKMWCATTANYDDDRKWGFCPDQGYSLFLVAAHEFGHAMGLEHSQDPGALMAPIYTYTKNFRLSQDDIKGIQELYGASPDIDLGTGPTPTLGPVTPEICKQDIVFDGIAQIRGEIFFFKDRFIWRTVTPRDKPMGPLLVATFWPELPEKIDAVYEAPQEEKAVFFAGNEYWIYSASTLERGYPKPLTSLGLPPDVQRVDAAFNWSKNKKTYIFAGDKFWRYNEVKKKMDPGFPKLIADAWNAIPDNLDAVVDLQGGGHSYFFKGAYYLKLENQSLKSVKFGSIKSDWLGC
result_type: Ki (nM)

CCOC(=O)C(C)C1=CNC(CC(C)C)(C2=CNC(CC(=O)NO)(CC(C)C)C2=O)C1=O (single isomer, unassigned; (-)) [(−)-1a, Bispyrrolinone Hydroxamic Acid]; 2900
